Recorded CC50 at 72 h, one value per entry.
assay_explanation: Cytotoxicity against human QSG7701 cells after 72 hrs by MTT assay
Format: cell-based
Answer in µM, number only, no unit symbol.

Known results for compounds:
O=[N+]([O-])c1ccc(N2CCN(CC(O)c3ccc(Br)cc3)CC2)cc1 (stereo not given) ... 1600
OC(CN1CCN(C(c2ccccc2)c2ccccc2)CC1)c1ccc(Br)cc1 (stereo not given) ... 2000
Cc1cc(N2CCOCC2)cc2[nH]c(-c3c(NC[C@@H](O)c4cccc(Cl)c4)cc[nH]c3=O)nc12 ... 32000
OC(CN1CCN(c2cccc(C(F)(F)F)c2)CC1)c1ccc(Br)cc1 (stereo not given) ... 6600

// next item, CC50 at 72 h requested
Retrieve CC50 at 72 h measured for OC(CN1CCN(c2ccccc2)CC1)c1ccc(Br)cc1 (stereo not given) and print it. 250

* * *

assay_explanation: cells
assay_context: Homo sapiens, LS174T, 48 h
Description: Antiproliferative activity against human LS 174T cells after 48 hrs by MTT assay
Recorded log10 of IC50, one value per entry.
All values: log10 IC50 [nM].

Known results for compounds:
O=[N+]([O-])c1ccc(N2CCN(CC(O)c3ccc(Br)cc3)CC2)cc1 (stereo not drawn) ... 3.34
OC(CN1CCN(c2ccccc2)CC1)c1ccc(Br)cc1 (stereo not drawn) ... 3.95
Cc1cc(N2CCOCC2)cc2[nH]c(-c3c(NC[C@@H](O)c4cccc(Cl)c4)cc[nH]c3=O)nc12 ... 3.31
OC(CN1CCN(c2ccccc2Cl)CC1)c1ccc(Br)cc1 (stereo not drawn) ... 3.40
OC(CN1CCN(c2cccc(Cl)c2Cl)CC1)c1ccc(Br)cc1 (stereo not drawn) ... 3.28

Retrieve log10 of IC50 measured for OC(CN1CCN(c2ccc(F)cc2)CC1)c1ccc(Br)cc1 (stereo not drawn) and print it. 3.66

Retrieve log10 of IC50 measured for OC(CN1CCN(c2ccc(Cl)c(Cl)c2)CC1)c1ccc(Br)cc1 (stereo not drawn) and print it. 3.28

Retrieve log10 of IC50 measured for OC(CN1CCN(C(c2ccccc2)c2ccccc2)CC1)c1ccc(Br)cc1 (stereo not drawn) and print it. 2.05

Retrieve log10 of IC50 measured for OC(CN1CCN(c2ccccc2F)CC1)c1ccc(Br)cc1 (stereo not drawn) and print it. 3.73

Retrieve log10 of IC50 measured for COc1ccc(N2CCN(CC(O)c3ccc(Br)cc3)CC2)cc1 (stereo not drawn) and print it. 3.41

Retrieve log10 of IC50 measured for OC(CN1CCN(c2ccccn2)CC1)c1ccc(Br)cc1 (stereo not drawn) and print it. 3.82

Retrieve log10 of IC50 measured for OC(CN1CCN(C(c2ccc(F)cc2)c2ccc(F)cc2)CC1)c1ccc(Br)cc1 (stereo not drawn) and print it. 1.83

Retrieve log10 of IC50 measured for COc1ccccc1N1CCN(CC(O)c2ccc(Br)cc2)CC1 (stereo not drawn) and print it. 3.41

Retrieve log10 of IC50 measured for OC(CN1CCN(c2cccc(Cl)c2)CC1)c1ccc(Br)cc1 (stereo not drawn) and print it. 4.23

Retrieve log10 of IC50 measured for OC(CN1CCN(c2cccc(C(F)(F)F)c2)CC1)c1ccc(Br)cc1 (stereo not drawn) and print it. 2.98

Retrieve log10 of IC50 measured for COc1cccc(N2CCN(CC(O)c3ccc(Br)cc3)CC2)c1 (stereo not drawn) and print it. 3.31

Retrieve log10 of IC50 measured for OC(CN1CCN(Cc2ccccc2)CC1)c1ccc(Br)cc1 (stereo not drawn) and print it. 3.43

Retrieve log10 of IC50 measured for Cc1ccc(N2CCN(CC(O)c3ccc(Br)cc3)CC2)c(C)c1 (stereo not drawn) and print it. 3.26
